B1: HESX1 (parent)
chain: ENKPSTCSFSIERILGLDQKKDCV

- Variants of: B1
- assay_notes: protein stability index of a GFP-peptide fusion (GPS, HEK-293T) (PSI 1-6); higher = more stable;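 further: lentivirally expressed fusions sorted by FACS into six bins by GFP to DsRed ratio, PSI derived from sequencing read proportions per bin multiplied by bin number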
- experimental_setup: c terminus: a fixed tail appended
Binary classification by protein stability index, with 3 as an inclusive lower bound for 1 (yes); all other cases are 0 (no).

* ENKPSTCSFSIERILGLKQKKDCV [D18K] | 0 (no)
* ENKPSTCHFSIERILGLDQKKDCV [S8H] | 0 (no)
* FNKPSTCSFSIERILGLDQKKDCV [E1F] | 0 (no)
* CNKPSTCSFSIERILGLDQKKDCV [E1C] | 0 (no)
* ENKPSTCSFSIERILGLDQKKDCW [V24W] | 0 (no)
* ENKPSTCSFSIERCLGLDQKKDCV [I14C] | 1 (yes)
* ENKPSTFSFSIERILGLDQKKDCV [C7F] | 1 (yes)
* ENKPSTCSFSIERILGLFQKKDCV [D18F] | 0 (no)
* ENKPSTCTFSIERILGLDQKKDCV [S8T] | 1 (yes)
* ENKPSTCSFSIEPILGLDQKKDCV [R13P] | 1 (yes)
* ENKPSPCSFSIERILGLDQKKDCV [T6P] | 0 (no)
* ENFPSTCSFSIERILGLDQKKDCV [K3F] | 0 (no)
* TNKPSTCSFSIERILGLDQKKDCV [E1T] | 0 (no)
* EFKPSTCSFSIERILGLDQKKDCV [N2F] | 0 (no)
* ENKPSTCSFFIERILGLDQKKDCV [S10F] | 0 (no)
* ENKPSLCSFSIERILGLDQKKDCV [T6L] | 1 (yes)
* ENKPSTCSFSIERILGLDQKKDCD [V24D] | 1 (yes)
* ENKPSTCSFSIERILGLSQKKDCV [D18S] | 1 (yes)
* ENKPSTCSMSIERILGLDQKKDCV [F9M] | 0 (no)
* ENKPSTCSFSIERILGLDQKKDCA [V24A] | 1 (yes)
* ENKPSTCSFSIERILGLDHKKDCV [Q19H] | 0 (no)
* ENKPSTCSFSIERILGLDQKKDCT [V24T] | 0 (no)
* ENKPSTCSFSIERILGLDQKRDCV [K21R] | 0 (no)
* ENKPSTCSFSIERDLGLDQKKDCV [I14D] | 1 (yes)
* ENKPQTCSFSIERILGLDQKKDCV [S5Q] | 0 (no)
* ENKPSTCSFSIERITGLDQKKDCV [L15T] | 1 (yes)
* ENKPSTCSFSIERILGLDQKKECV [D22E] | 1 (yes)
* ENKPSTCSFSQERILGLDQKKDCV [I11Q] | 1 (yes)
* ENKPCTCSFSIERILGLDQKKDCV [S5C] | 0 (no)
* ENKPSTCSFSIERALGLDQKKDCV [I14A] | 1 (yes)
* ENKPSMCSFSIERILGLDQKKDCV [T6M] | 0 (no)
* ANKPSTCSFSIERILGLDQKKDCV [E1A] | 0 (no)
* ENKPSTCSFSINRILGLDQKKDCV [E12N] | 1 (yes)
* ENKPVTCSFSIERILGLDQKKDCV [S5V] | 0 (no)
* ENKPSTCSFSIEQILGLDQKKDCV [R13Q] | 0 (no)
* ENKPSTCSFSIERILGLDQTKDCV [K20T] | 0 (no)
* ENKPSTCSFSIFRILGLDQKKDCV [E12F] | 0 (no)
* ENKPSTCSFSIMRILGLDQKKDCV [E12M] | 0 (no)

Origin of measurements: the supplement of paper PMC10567573
